All figures here come from PubChem BioAssay (NCI).

# Test system: OVCAR-5 ovarian
# assay: NCI-60 one-dose screen, 48 h (100 = growth as untreated, 0 = no growth, -100 = all killed)
# particulars: 10 µM unless noted
About 83,000 compounds went through this panel and 20% of them were active in at least one assay; those are over-represented in the sample as a whole.
Each record here notes measured growth.
API: value field is a number in %; no unit string.

Challenge: Item CNC(=O)c1c(NC(=O)c2ccccc2C(F)(F)F)sc2c1CCC(=O)C2 with OVCAR-5 ovarian - growth?
Response given: 23.2

Challenge: Item CCn1c(SCC(=O)Nc2cccc(C(=O)/C=C/c3ccc(Br)cc3)c2)nc2ccccc2c1=O with OVCAR-5 ovarian - growth?
Response given: 95.8

Challenge: Item CCNC(=O)N1CCc2cc(OC)c(OCCc3ccc(OC)cc3)cc2C1c1ccc([N+](=O)[O-])cc1C (centres undefined) with OVCAR-5 ovarian - growth?
Response given: 40.4

Challenge: Item O=C1[C@H]2Cc3c([nH]c4ccccc34)[C@@H](c3c(Cl)cccc3Cl)N2C(=O)CN1C1CCN(CC2CCCCC2)CC1 with OVCAR-5 ovarian - growth?
Response given: 97.8

Challenge: Item Cc1cc(-c2ccc(Cl)cc2)n(Cc2nnc(SCC(=O)Nc3ccc(S(N)(=O)=O)cc3)n2-c2ccc([N+](=O)[O-])cc2)n1 with OVCAR-5 ovarian - growth?
Response given: 98.5

Continuing:
Challenge: Item COC(=O)C[Se]C(=O)Cc1c(C)n(C(=O)c2ccc(Cl)cc2)c2ccc(OC)cc12 with OVCAR-5 ovarian - growth?
Response given: 15.4

Challenge: Item O=C1C(c2ccccc2)=C(N2CCc3ccccc32)OC1(Cl)Cl with OVCAR-5 ovarian - growth?
Response given: 82

Challenge: Item COc1ccc2c(c1)c(CC(=O)[Se]CC(=O)O)c(C)n2C(=O)c1ccc(Cl)cc1 with OVCAR-5 ovarian - growth?
Response given: 104

Challenge: Item CCCCCc1ccc(S(=O)(=O)Nc2cc(-c3csc(NC(=O)CN4CCN(C)CC4)n3)ccc2OC)cc1 with OVCAR-5 ovarian - growth?
Response given: 62.4
